Just for reference, patent US12629382B2 is where these values come from.

Tested on: MCF7
method: Intracellular GSH, GSH-Glo assay, MCF7 cells
Type: cell-based
assay-conditions: Homo sapiens, 250 μM compound, 48 h, normalized to untreated control, read-out: Intracellular GSH level MCF7 250 μM
Here the recorded activity at 250 µM is given for each entry.
measured-property: activity at 250 µM (%)

molecule: O=C(O)c1cc(/C=C/c2ccccc2)ccc1O [DC02, (E)-2-hydroxy-5-styrylbenzoic acid]
reported-result: 47.4

molecule: Nc1ccc(/C=C/c2ccccc2)cc1C(=O)O [DC12, (E)-2-amino-5-styrylbenzoic acid]
reported-result: 116

molecule: Oc1ccc(/C=C/c2ccccc2)cc1-c1nnn[nH]1 [DC15, (E)-4-styryl-2-(1H-tetrazol-5-yl)phenol]
reported-result: 75.8

molecule: O=C(O)c1cc(/C=C/c2ccc(S(=O)(=O)Nc3ccccc3)cc2)ccc1O [DC14]
reported-result: 25.9

molecule: Cc1cc(O)c(C(=O)O)c(C)c1-c1ccc2ccccc2c1 [DC20]
reported-result: 40.5

molecule: O=C(O)c1cc(/C=C/c2cccc(-c3ccccc3)c2)ccc1O [DC18]
reported-result: 54.6

molecule: O=C(O)c1cc(/C=C/c2ccc(F)cc2)ccc1O [DC07]
reported-result: 22.1

molecule: CC(=O)Nc1ccc(/C=C/c2ccccc2)cc1C(=O)O [DC16, (E)-2-acetamido-5-styrylbenzoic acid]
reported-result: 92.4

molecule: O=C(O)c1cc(/C=C/c2ccccc2-c2ccccc2)ccc1O [DC19]
reported-result: 51

molecule: COc1ccc(-c2ccc3ccccc3c2)cc1C(=O)O [DC05]
reported-result: 82.4

molecule: COc1ccc(/C=C\c2ccccc2)cc1C(=O)O [DC03, (Z)-2-methoxy-5-styrylbenzoic acid]
reported-result: 94.9

molecule: CSc1ccc(/C=C/c2ccc(O)c(C(=O)O)c2)cc1 [DC08]
reported-result: 21.1

molecule: CS(=O)(=O)c1ccc(/C=C/c2ccc(O)c(C(=O)O)c2)cc1 [DC13]
reported-result: 88.3

molecule: CC1(C)c2ccccc2-c2ccc(/C=C/c3ccc(O)c(C(=O)O)c3)cc21 [DC21]
reported-result: 5.7

molecule: COc1ccc(/C=C/c2ccccc2)cc1C(=O)O [DC01, (E)-2-methoxy-5-styrylbenzoic acid]
reported-result: 93.8

molecule: O=C(O)c1cc(-c2ccc(-c3ccccc3)cc2)ccc1O [DC17]
reported-result: 51.7

molecule: O=C(O)c1cc(-c2ccc3ccccc3c2)ccc1O [DC11]
reported-result: 23.7

molecule: COc1ccc(C#Cc2ccccc2)cc1C(=O)O [DC04, 2-methoxy-5-(phenylethynyl)benzoic acid]
reported-result: 91.4

molecule: O=C(O)c1cc(/C=C/c2ccc(-c3ccccc3)cc2)ccc1O [DC10]
reported-result: 28

molecule: O=C(O)c1cc(/N=N/c2ccc(S(=O)(=O)Nc3ccccn3)cc2)ccc1O [SAS, Sulfasalazine, reference compound]
reported-result: 26.2

====

Test system: U87
method: Intracellular GSH, GSH-Glo assay, U87 cells
Type: cell-based
assay-conditions: Homo sapiens, U-87 MG, 250 μM compound, 48 h, normalized to untreated control, read-out: Intracellular GSH level U87 250 μM
I'd appreciate it if you marked entries 1 (yes) when activity at 250 µM is lower than 70% and 0 (no) when it is not.

compound: CC1(C)c2ccccc2-c2ccc(/C=C/c3ccc(O)c(C(=O)O)c3)cc21
assigned-category: 1 (yes)
//
compound: O=C(O)c1cc(-c2ccc(-c3ccccc3)cc2)ccc1O
assigned-category: 1 (yes)
//
compound: CS(=O)(=O)c1ccc(/C=C/c2ccc(O)c(C(=O)O)c2)cc1
assigned-category: 0 (no)
//
compound: O=C(O)c1cc(/C=C/c2cccc(-c3ccccc3)c2)ccc1O
assigned-category: 1 (yes)
//
compound: Oc1ccc(/C=C/c2ccccc2)cc1-c1nnn[nH]1 [DC15, (E)-4-styryl-2-(1H-tetrazol-5-yl)phenol]
assigned-category: 0 (no)
//
compound: O=C(O)c1cc(/C=C/c2ccc(-c3ccccc3)cc2)ccc1O
assigned-category: 0 (no)
//
compound: CSc1ccc(/C=C/c2ccc(O)c(C(=O)O)c2)cc1
assigned-category: 1 (yes)
//
compound: CC(=O)Nc1ccc(/C=C/c2ccccc2)cc1C(=O)O [DC16, (E)-2-acetamido-5-styrylbenzoic acid]
assigned-category: 0 (no)
//
compound: O=C(O)c1cc(/C=C/c2ccc(S(=O)(=O)Nc3ccccc3)cc2)ccc1O
assigned-category: 1 (yes)
//
compound: O=C(O)c1cc(-c2ccc3ccccc3c2)ccc1O
assigned-category: 1 (yes)
//
compound: COc1ccc(C#Cc2ccccc2)cc1C(=O)O
assigned-category: 0 (no)
//
compound: Nc1ccc(/C=C/c2ccccc2)cc1C(=O)O [DC12, (E)-2-amino-5-styrylbenzoic acid]
assigned-category: 0 (no)
//
compound: Cc1cc(O)c(C(=O)O)c(C)c1-c1ccc2ccccc2c1
assigned-category: 1 (yes)
//
compound: COc1ccc(/C=C/c2ccccc2)cc1C(=O)O [DC01, (E)-2-methoxy-5-styrylbenzoic acid]
assigned-category: 0 (no)
//
compound: COc1ccc(/C=C\c2ccccc2)cc1C(=O)O [DC03, (Z)-2-methoxy-5-styrylbenzoic acid]
assigned-category: 0 (no)
//
compound: O=C(O)c1cc(/C=C/c2ccccc2-c2ccccc2)ccc1O
assigned-category: 1 (yes)
//
compound: O=C(O)c1cc(/N=N/c2ccc(S(=O)(=O)Nc3ccccn3)cc2)ccc1O [SAS, Sulfasalazine, reference compound]
assigned-category: 1 (yes)
//
compound: O=C(O)c1cc(/C=C/c2ccc(F)cc2)ccc1O
assigned-category: 1 (yes)
//
compound: O=C(O)c1cc(/C=C/c2ccccc2)ccc1O [DC02, (E)-2-hydroxy-5-styrylbenzoic acid]
assigned-category: 0 (no)
//
compound: COc1ccc(-c2ccc3ccccc3c2)cc1C(=O)O
assigned-category: 1 (yes)
